System: Wolbachia pipientis
PROCEDURE_SUMMARY: Anti-Wolbachia Cell-Based Screen
Assay type: functional
Design: scale not given: in the data most compounds retested in dose-response had high values
EXPERIMENTAL_SETUP: 5 µM
About 13,000 (27%) of roughly 48,000 compounds showed an effect of 50% or more. The list shows a part of the results.
Entries and their Percent Effect values follow.
READOUT_TYPE: Percent Effect (%)

1. CCN1CC2(CC1=O)CN(C(=O)N(C)C)CCN(S(C)(=O)=O)C2 (stereo not drawn) :: -16.32
2. CCN1CC2(CC1=O)CN(C(=O)C(C)C)CCN(S(C)(=O)=O)C2 (stereo not drawn) :: 4.611
3. COCC(=O)NCCSCCOc1cccc(Br)c1 :: 5.807
4. Cc1noc(C)c1CN(Cc1cccs1)C1CCS(=O)(=O)C1 (stereo not drawn) :: 104.9
5. Fc1ccccc1C(CNc1ccncn1)N1CCCC1 (stereo not drawn) :: 123.2
6. Cc1cnc(N2C[C@@H]3[C@@H](C2)OCC(=O)N3CC(C)C)nc1.O=C(O)C(F)(F)F :: -17.14
7. CCc1[nH]n(C)c(=N)c1-c1ccc2c(c1)OCO2 :: -3.293
8. CCN1CC2(CC1=O)CN(C(C)=O)CCN(S(C)(=O)=O)C2 (stereo not drawn) :: -3.303
9. CCN1CC2(CC1=O)CN(C(=O)NC(C)C)CCN(S(C)(=O)=O)C2 (stereo not drawn) :: 100.8
10. CNc1ncc(CN(C)C(=O)[C@@]23CNC[C@@H]2CN(C(=O)C2CC2)C3)cn1 :: -3.257
11. O=C(CN(Cc1cccs1)C1CCS(=O)(=O)C1)NCC1CCCCC1 (stereo not drawn) :: 2.941
12. CCS(=O)(=O)N1CCN(C(=O)NC(C)C)CC2(CC(=O)N(C)C2)C1 (stereo not drawn) :: -2.042
13. CCCC(C(=O)NC1CCN(S(C)(=O)=O)CC1)n1cccc1 (stereo not drawn) :: -3.816
14. Cn1cc(CN2CCn3cc(CNC(=O)C4CCC4)nc3C2)cn1.O=C(O)C(F)(F)F :: 18.03
15. CCN1CC2(CC1=O)CN(C(=O)C(C)C)CCN(S(=O)(=O)CC)C2 (stereo not drawn) :: 12.11
16. Cc1cc(N(C)CCn2ccnc2C)n2nccc2n1 :: 3.132
17. O=S1(=O)CCC(N(Cc2nc(-c3ccccn3)no2)Cc2cccs2)C1 (stereo not drawn) :: 124.4
18. CCN1CC2(CC1=O)CN(C(=O)NC(C)C)CCN(C(=O)NC(C)C)C2 :: 115.2
19. OC(CN1CCCCCCC1)c1ccc(F)cc1 (stereo not drawn) :: -2.886
20. CCCNC(=O)c1ccc(S(=O)(=O)NCC2(COC)CCCC2)cc1 :: 10.08
21. CC(C)(C)c1nc(CN(Cc2cccs2)C2CCS(=O)(=O)C2)no1 (stereo not drawn) :: 9.766
22. CC(=O)c1ccc(C(=O)N(C)Cc2nc(-c3ccccn3)no2)s1 :: -11.07
23. Cc1cc(C)nc(N(C)CCn2ccnc2C)n1 :: 70.85

* * *

Tested on: Wolbachia pipientis
PROCEDURE_SUMMARY: Anti-Wolbachia Cell-Based Screen
Assay type: functional
Parameters: scale not given: in the data most compounds retested in dose-response had high values
EXPERIMENTAL_SETUP: 5 µM
The campaign covered roughly 48,000 compounds. About 13,000 (27%) showed an effect of 50% or more. The list shows a part of the results.
READOUT_TYPE: Percent Effect

1) CCCN(Cc1nccn1C)C(=O)c1cc(C(C)C)on1 :: -14.15%
2) CS(=O)(=O)CCCNC1(c2ccc(Br)cc2)CCC1 :: 1.327%
3) Cc1cccc(I)c1C(=O)NCc1ncc[nH]1 :: -11.65%
4) COCCC(=O)N1CC2(CCN(Cc3ccccc3Cl)CC2)C1.O=C(O)C(F)(F)F :: 7.796%
5) CSCCc1c(-c2ccccc2)ncn1CC(C)(C)N1CCCC1 :: -6.465%
6) Cc1cc(C(F)F)nn1C(C)C(=O)NCc1nccn1C (configuration not stated) :: 129.1%
7) CC(C)OCCN1CCc2cncnc2C1 :: -3.318%
8) c1ccc2c(N3CCSCC3)cnnc2c1 :: -7.227%
9) CC1CCN(S(=O)(=O)c2cccnc2)c2ccccc2S1 (configuration not stated) :: -3.494%
10) Cc1noc(CCCNS(=O)(=O)N2CCCC2c2ccco2)n1 (configuration not stated) :: -11.05%
11) CCOc1ccc(CN2C(=O)CC(CC)(CC)C2=O)nc1 :: 8.891%
12) Cc1cc(C(F)F)nn1C(C)C(=O)NCc1ncc[nH]1 (configuration not stated) :: 132.9%

* * *

Entries and their Percent Effect values follow.
Test system: Wolbachia pipientis
PROCEDURE_SUMMARY: Anti-Wolbachia Cell-Based Screen
Type: functional
Design: scale not given: in the data most compounds retested in dose-response had high values
EXPERIMENTAL_SETUP: 5 µM
Screen size: about 48,000 compounds; about 13,000 (27%) showed an effect of 50% or more. Some of the results follow.
READOUT_TYPE: Percent Effect (%)

1) COc1cc(C)ccc1C(=O)N1C[C@@H](CN(C)CCO)[C@@H](CO)C1 :: -2.888
2) COc1cccc(OC)c1C(=O)N1C[C@@H](CN(C)C)[C@@H](CO)C1 :: -5.352
3) Cc1nonc1C1CCCN1C(=O)c1cc2n(n1)CCCN(C(C)C)C2 (configuration not stated) :: 4.032
4) COCCN1C[C@H]2CC[C@@H]1CN(Cc1cc(=O)c3cc(C)ccc3[nH]1)C2 :: -2.085
5) CCCOc1ccc(C(=O)N2C[C@@H](CN3CCCC3)[C@@H](CO)C2)cc1Cl :: 0.3871
6) CN(C)C[C@@H]1CN(C(=O)c2cc(F)ccc2F)C[C@@H]1CO :: -6.942
7) CCc1ccc(C2COCCN2C(=O)Nc2cc(C)on2)o1 (configuration not stated) :: -5.597
8) O=C(NCCc1nnc2n1CCCCC2)N1CCC2(CCCC2)CC1 :: -8.228
9) Cc1cc(NCC2CCN(c3ccccc3)C2)n2ncnc2n1 (configuration not stated) :: 0.02222
10) Cl.O=C(Nc1cccc(C(=O)OCC2CCCN2)c1)c1ccoc1 (configuration not stated) :: -16.18
11) CC(C)c1cc(C(=O)N2C[C@H]3CC[C@@H]2CN(Cc2cccnc2)C3)no1 :: 0.5633
12) Cc1cc(C(=O)N2C[C@@H](CN3CCCCC3)[C@@H](CO)C2)ccc1O :: -7.322
13) Cc1nc(C)n(CCNC(=O)C(C)n2ccnc2C(C)C)n1 (configuration not stated) :: -3.784
14) O=C(c1cc(C2CC2)on1)N1CCC(Oc2ncccc2Cl)CC1 :: 9.581
15) O=C(c1cccc(O)n1)N1CCC(O)(CN2CCC(F)(F)CC2)C1 (configuration not stated) :: 119.2
16) Cc1cnn(C2CCCN(C(=O)c3cc(C4CC4)on3)C2)c1 (configuration not stated) :: 8.361
17) Cc1cccnc1N1CCN(C(=O)C(C)n2ccnc2C(C)C)CC1 (configuration not stated) :: -23.9
18) CCN(C)C[C@@H]1CN(C(=O)c2cc(C(F)(F)F)n[nH]2)C[C@@H]1CO :: 95.2
19) CCCc1ccc(S(=O)(=O)NCCNC(=O)c2ccoc2)cc1 :: -13.27
20) COc1cccc(F)c1C(=O)N1C[C@@H](CN(C)CCO)[C@@H](CO)C1 :: 0.09463
21) O=C(c1cnc(COc2ccccc2)nc1O)N1CCC(F)(F)CC1 :: 10.39
22) COCCN(C)C[C@@H]1CN(C(=O)c2ccc(O)c(C)c2)C[C@@H]1CO :: 126

* * *

Entries and their Percent Effect values follow.
Tested on: Wolbachia pipientis
PROCEDURE_SUMMARY: Anti-Wolbachia Cell-Based Screen
Format: functional
Parameters: scale not given: in the data most compounds retested in dose-response had high values
EXPERIMENTAL_SETUP: 5 µM
The whole screen tested about 48,000 compounds, of which about 13,000 (27%) showed an effect of 50% or more. The list shows a part of the results.
READOUT_TYPE: Percent Effect (%)

1. O=C(O)C(F)(F)F.O=C(O)C(F)(F)F.c1cc(CN2CCC3(CCOCC3COCC3CC3)CC2)ccn1 (stereo not given) :: -8.349
2. O=C(O)C(F)(F)F.c1csc(CN2CCC3(CCOCC3COCC3CC3)CC2)n1 (stereo not given) :: 99.84
3. COCC1COCCC12CCN(Cc1nccs1)CC2.O=C(O)C(F)(F)F (stereo not given) :: 97.2
4. O=C(O)C(F)(F)F.c1coc(CN2CCC3(CCOCC3COCC3CC3)CC2)c1 (stereo not given) :: -46.4
5. CN1C(=O)CC2(CCN(S(=O)(=O)c3cccs3)CC2)c2ccccc21 :: 10.11
